- testedSystem: T1, Kelch-like protein 20 (KLHL20) (UniProt Q9Y2M5 1-609)
- T1 construct: Kelch-like protein 20 (KLHL20), E3 ubiquitin ligase adapter; The functional rows use this molecule for KLHL20 of HEK293 cells; also called E3 ligase adapter
- T1 sequence (looked up): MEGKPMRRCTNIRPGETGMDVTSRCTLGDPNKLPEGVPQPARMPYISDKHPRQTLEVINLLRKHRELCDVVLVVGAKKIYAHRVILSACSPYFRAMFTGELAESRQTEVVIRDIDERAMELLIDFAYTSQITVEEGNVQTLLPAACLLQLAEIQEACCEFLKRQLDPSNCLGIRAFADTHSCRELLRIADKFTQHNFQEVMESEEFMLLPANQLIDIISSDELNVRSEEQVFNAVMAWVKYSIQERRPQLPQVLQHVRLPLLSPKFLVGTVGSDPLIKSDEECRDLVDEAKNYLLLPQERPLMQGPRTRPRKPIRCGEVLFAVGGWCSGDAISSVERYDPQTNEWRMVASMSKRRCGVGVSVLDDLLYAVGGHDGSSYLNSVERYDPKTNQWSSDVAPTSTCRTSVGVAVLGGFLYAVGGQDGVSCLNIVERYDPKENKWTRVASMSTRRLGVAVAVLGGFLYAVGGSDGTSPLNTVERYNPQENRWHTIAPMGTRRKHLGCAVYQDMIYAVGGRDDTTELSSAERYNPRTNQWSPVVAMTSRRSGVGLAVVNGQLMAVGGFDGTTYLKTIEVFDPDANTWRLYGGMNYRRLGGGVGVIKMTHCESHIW
- assayRemarks: fluorescence polarisation; direct FA titration of the tracer with KLHL20
- assayConditions: both partners purified
Ahx = NCCCCCC(=O)O
readoutName: pKd
Numbers only, as −log10 of the molar value.

stdin: // returns reported pKd for input {FAM-Ahx}-LGLPDLVAK-NH2 [tracer of the competitive FA-binding assay for KLHL20]
stdout: 4.92
